Molecular target: purified human Hsp90
Test: Binding Assay: fluorescence polarization with BODIPY-labeled geldanamycin
Conditions: BODIPY-GM 10 nM, Hsp90 30 nM
Source text: Compound binding to purified Hsp90 was monitored using BODIPY-labeled geldanamycin (BODIPY-GM) in a fluorescence polarization assay adapted from Kim et al. (Journal of Biomolecular Screening 2004, 9(5):375-381). […] Parallel and perpendicular fluorescence measurements were read (LJL BioSystems Analyst AD plate reader) with excitation/emission wavelengths of 485/530 nm. […]
recorded.metric: IC50 (µM)

compound | numeric.result
CC(C)(C)C(=O)N1CCC(CCn2c(Sc3cc4c(cc3Br)OCO4)nc3c(N)ncnc32)CC1 | 0.195
Nc1ncnc2c1nc(Sc1cc3c(cc1Br)OCO3)n2CC[C@@H]1CCCNC1 | 0.14
CC(C)(C)OC(=O)N1CC[C@H](CCn2c(Sc3cc4c(cc3Br)OCO4)nc3c(N)ncnc32)C1 | 0.3

1: COc1ccc(OC)c(Sc2nc3c(N)ncnc3n2CCc2ccc(S(=O)(=O)O)cc2)c1
2: Nc1ncnc2c1nc(Sc1cc3c(cc1Br)OCO3)n2CCC1CCCN1C(=O)OCc1ccccc1 (centres unmarked)
Task: Thinking about recorded IC50 values, which is higher, 1 or 2 ? // caller expects the label of the chosen entry
Output: 1

====

Target: purified human Hsp90
Assay: Binding Assay: fluorescence polarization with BODIPY-labeled geldanamycin
Conditions: BODIPY-GM 10 nM, Hsp90 30 nM
From the text: Compound binding to purified Hsp90 was monitored using BODIPY-labeled geldanamycin (BODIPY-GM) in a fluorescence polarization assay adapted from Kim et al. (Journal of Biomolecular Screening 2004, 9(5):375-381). […] Parallel and perpendicular fluorescence measurements were read (LJL BioSystems Analyst AD plate reader) with excitation/emission wavelengths of 485/530 nm. […]
recorded.metric: IC50 (nM)

I: CC(C)(C)OC(=O)NC(CCn1c(Sc2cc3c(cc2Br)OCO3)nc2c(N)ncnc21)C1CCSCC1 (stereo not shown)
II: CC1CC1C(=O)N1CCC(CCn2c(Sc3cc4c(cc3Br)OCO4)nc3c(N)ncnc32)CC1 (stereo not shown)
III: Nc1ncnc2c1nc(Sc1cc3c(cc1Br)OCO3)n2CCC(N)C1CC1 (stereo not shown)
IV: CC(=O)N1CCC(CCn2c(Sc3nc(C)c(C)s3)nc3c(N)ncnc32)CC1
Task: Descending sort on IC50 required. Please list each label once, in the requested order.
Output: IV, I, II, III
(IV: 2000 nM, I: 800 nM, II: 140 nM, III: 80 nM)

P: COc1ccc(OC)c(Sc2nc3c(N)ncnc3n2CCc2ccc(NC(=O)OC(C)(C)C)cc2)c1
Q: CCCCNC(=O)Nc1ccc(CCn2c(Sc3cc4c(cc3Br)OCO4)nc3c(N)ncnc32)cc1
R: Cn1nnnc1N1CCC(CCn2c(Sc3cc4c(cc3Br)OCO4)nc3c(N)ncnc32)CC1
Task: List the 3 entries from lowest IC50 to highest IC50 value. Please list each label once, in the requested order.
Output: R, Q, P

1: Nc1ncnc2c1nc(Sc1cc3c(cc1Br)OCO3)n2CCC1CCN(C(=O)CO)CC1
2: CC(C)(C)OC(=O)NCC(=O)N1CCC(CCn2c(Sc3cc4c(cc3Br)OCO4)nc3c(N)ncnc32)CC1
3: CO[C@@H](C)C(=O)N1CCC(CCn2cnc(N)c3nc(Sc4cc5c(cc4Br)OCO5)nc2-3)CC1
Task: List the 3 entries from lowest IC50 to highest IC50 value. Please list each label once, in the requested order.
Output: 2, 1, 3
